Reference for the values: paper PMC5540273

# System: GSK3B
# measurementSetup: 1 µM; n = 1;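 also: KINOMEscan kinase panel screen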
Assign %Inh to each entry below.
// units = %; emit number, no label

Note to self: %Inh recorded for Nc1n[nH]c2ncc(-c3ccccc3)cc12 was 20

Note to self: %Inh recorded for O=C1NC(=O)C(c2ccccc2)=C1Nc1cccc(O)c1 was 20

Note to self: %Inh recorded for O=C(Nc1n[nH]c2nc(-c3ccccc3)c(Br)cc12)C1CC1 was 15

Note to self: %Inh recorded for Fc1cccc(CSc2nnc(-c3ccc4c(c3)CCO4)o2)c1 was 37

Note to self: %Inh recorded for CCCC(=O)Nc1n[nH]c2ncc(-c3cccc4ccccc34)cc12 was 33

====

# Tested on: NIK
# Construct: gene MAP3K14
# measurementSetup: concentration: 1 μM, replicates: in singlicate; n = 1
reportedProperty: %Inh (%)
// units = %; emit number, no label

Note to self: %Inh recorded for CCn1c(-c2nonc2N)nc2ccccc21 was 24

Note to self: %Inh recorded for Nc1ncnc2c1ncn2-c1cccc(F)c1 was 18

Note to self: %Inh recorded for Nc1nc(-c2ccccc2F)c(-c2ccnc3ccccc23)s1 was 17

Note to self: %Inh recorded for CCc1ccc(-c2ccc3c(c2)-c2nn(C)cc2S(=O)(=O)N3C)cc1 was 0

Note to self: %Inh recorded for COc1cc(Nc2ccnc3ccc(C(F)(F)F)cc23)cc(OC)c1OC was 0

Note to self: %Inh recorded for O=C(Nc1n[nH]c2nc(-c3ccccc3)c(Cl)cc12)C1CC1 was 13

Note to self: %Inh recorded for Cc1nc(N(C)[C@H]2CN(C(=O)CC#N)CC[C@H]2C)c2cc[nH]c2n1 was 0

Note to self: %Inh recorded for Nc1ncnc2c1ncn2-c1ccc(Cl)cc1 was 89

Note to self: %Inh recorded for COc1cccc(C2=C(Nc3cccc(C(=O)O)c3)C(=O)NC2=O)c1 was 0

Note to self: %Inh recorded for O=c1cc(N2CCOCC2)nc2n(Cc3ccc(F)c(Cl)c3)ccn12 was 0

Note to self: %Inh recorded for CCn1c(-c2ccoc2)nc2cnccc21 was 21

Note to self: %Inh recorded for COc1ccc(-n2cnc3c(N)ncnc32)cc1 was 0

Note to self: %Inh recorded for O=C(Nc1ccc2c(c1)OCO2)NC1CCN(c2ccnc(NCc3ccc(F)cc3)n2)CC1 was 12

Note to self: %Inh recorded for Cc1ccccc1COc1cc(-n2cnc3cc(Cl)ccc32)sc1C(N)=O was 9

Note to self: %Inh recorded for COc1cc(Nc2nccc(N3CCC(NC(=O)C4COc5ccccc5O4)C3)n2)cc(OC)c1OC (stereo not shown) was 42

Note to self: %Inh recorded for COc1cccc(-n2cnc3c(N)ncnc32)c1 was 27

Note to self: %Inh recorded for Cc1cccc(-c2nc(Nc3ccc4c(cnn4C)c3)c3ccccc3n2)n1 was 11

Note to self: %Inh recorded for Cn1c(=O)c(F)c(Nc2ccc(I)cc2F)c2c(=O)n(OC[C@H](O)CO)cnc21 was 0

Note to self: %Inh recorded for COc1cc2ncn(-c3cc(OCc4ccc(S(C)(=O)=O)cc4)c(C(N)=O)s3)c2cc1OC was 7

====

# System: MAP3K4
# measurementSetup: concentration: 1 μM, replicates: in singlicate; n = 1
Assign %Inh to each entry below.
Param answer (str): number followed by unit.

Note to self: %Inh recorded for O=C(Nc1n[nH]c2nc(-c3ccccc3)c(Cl)cc12)C1CC1 was 5%

Note to self: %Inh recorded for COc1cc2ncn(-c3cc(OCc4ccncc4Br)c(C(N)=O)s3)c2cc1OC was 17%

Note to self: %Inh recorded for CN1C(=O)C(Nc2ccccc2)=C(c2ccccc2)C1=O was 0%

Note to self: %Inh recorded for COc1ccc(-c2cc3c(C)nc(N)nc3n([C@H]3CC[C@H](O)CC3)c2=O)cn1 was 0%

Note to self: %Inh recorded for O=c1cc(N2CCOCC2)nc2n(Cc3ccc(F)c(Cl)c3)ccn12 was 25%

Note to self: %Inh recorded for COc1ccc(-c2coc3ccc(-c4nnc(SCc5cccc(C#N)c5)o4)cc23)cc1 was 11%

Note to self: %Inh recorded for COc1ccc(CNC(=O)NC2CCN(c3ccnc(Nc4ccc(F)cc4)n3)C2)cc1 (stereo not drawn) was 0%

Note to self: %Inh recorded for COc1cc(Nc2ccnc3ccc(C(F)(F)F)cc23)cc(OC)c1OC was 7%

Note to self: %Inh recorded for Cc1ccc(Oc2ccc(Nc3ncnc4cc[nH]c34)cc2C)cn1 was 6%

====

Assign %Inh to each entry below.
# System: ARK5
# Construct: gene NUAK1
# measurementSetup: concentration: 1 μM, replicates: in singlicate; n = 1
// units = %; emit number, no label

Note to self: %Inh recorded for O=C(NCCNc1ccnc(Nc2ccc(F)cc2)n1)Nc1ccc2c(c1)OCO2 was 11

Note to self: %Inh recorded for CCCNC(=O)Nc1ccc(Oc2ncnc3ccn(C)c23)cc1 was 0

Note to self: %Inh recorded for O=C(Nc1n[nH]c2cc(-c3ccccc3F)ccc12)C1CC1 was 0

Note to self: %Inh recorded for Cc1nnc(-c2ccc(C)c(-c3ccc(C(=O)O)cc3)c2)o1 was 11

Note to self: %Inh recorded for CCc1ccc(-c2ccc3c(c2)-c2nn(C)cc2S(=O)(=O)N3C)cc1 was 13

Note to self: %Inh recorded for CC(C)(C)c1ccc(C(=O)Nc2cn3cc(-c4ccccc4)ccc3n2)cc1 was 13

Note to self: %Inh recorded for COc1cc2nccc(Nc3ccc(OCc4ccc(NC(C)=O)cc4)cc3)c2cc1OC.Cl was 28

Note to self: %Inh recorded for CN(C)c1cc(-c2ccc3c(N)n[nH]c3c2)nc(N)n1 was 0

Note to self: %Inh recorded for Nc1n[nH]c2nnc(-c3ccccc3)c(-c3ccccc3)c12 was 9

Note to self: %Inh recorded for CCS(=O)c1ccc(-c2coc3ccc(-c4nnc(C)o4)cc23)cc1 (stereo not shown) was 0

Note to self: %Inh recorded for COC(=O)c1c(-c2ccccc2)c2cc(Br)ccc2c(=O)n1Cc1ccc(S(C)(=O)=O)cc1 was 11

Note to self: %Inh recorded for Cc1ccc(-c2ccc3c(ccc4sc5c(c43)NC[C@@H](C)N=C5N(C)C)n2)cn1 was 0

Note to self: %Inh recorded for CCC(=O)c1c(-c2ccccc2)c2cc(Cl)ccc2c(=O)n1Cc1ccc(C(=O)O)cc1 was 6

Note to self: %Inh recorded for O=C(Nc1n[nH]c2nc(-c3ccccc3)c(Br)cc12)C1CC1 was 0

Note to self: %Inh recorded for O=C(Nc1n[nH]c2nc(-c3ccccc3)c(Cl)cc12)C1CC1 was 1

Note to self: %Inh recorded for O=C1NC(=O)C(c2ccccc2)=C1Nc1cccc(O)c1 was 0

Note to self: %Inh recorded for COc1ccc(-c2coc3ccc(-c4nnc(SCc5cccc(C#N)c5)o4)cc23)cc1 was 16

Note to self: %Inh recorded for Cc1nn2c(=O)cc(N3CCOCC3)nc2n1Cc1cccc(Cl)c1Cl was 20

Note to self: %Inh recorded for Cc1cccc(-c2cc(-c3c[nH]nc3-c3ccccn3)ccn2)c1 was 0

====

# System: PRKX
# measurementSetup: concentration: 1 μM, replicates: in singlicate; n = 1
Assign %Inh to each entry below.
// units = %; emit number, no label

Note to self: %Inh recorded for Cc1nc(N(C)[C@H]2CN(C(=O)CC#N)CC[C@H]2C)c2cc[nH]c2n1 was 4

Note to self: %Inh recorded for CCC(=O)c1c(-c2ccccc2)c2cc(Cl)ccc2c(=O)n1Cc1cc(S(C)(=O)=O)n(CC(F)F)n1 was 1

Note to self: %Inh recorded for O=C(Nc1ccc2c(c1)OCO2)NC1CCN(c2ccnc(NCc3ccc(F)cc3)n2)CC1 [GSK1379859] was 3

Note to self: %Inh recorded for Nc1nc(N)c2nc(-c3ccccc3)[nH]c2n1 [SKF-12778] was 7

Note to self: %Inh recorded for COc1cc2nccc(Nc3ccc(OCc4ccc(NC(C)=O)cc4)cc3)c2cc1OC.Cl [GW440135] was 7

====

# Test system: BLK
# measurementSetup: concentration: 1 μM, replicates: in singlicate; n = 1
Label Met for high-side %Inh (at or above 9%) and Not met for low-side %Inh (below it).

Exercise: Exam item: decide whether the reported %Inh for COc1ccc(-n2cnc3c(N)ncnc32)cc1 is at least 9%.
Key: Met

Exercise: Exam item: decide whether the reported %Inh for COc1cccc(C2=C(Nc3cccc(C(=O)O)c3)C(=O)NC2=O)c1 is at least 9%.
Key: Not met

Exercise: Exam item: decide whether the reported %Inh for COc1cc(Nc2nccc(N3CCC(NC(=O)C(C)c4ccc(Cl)cc4)C3)n2)cc(OC)c1OC (stereo not drawn) is at least 9%.
Key: Met

Exercise: Exam item: decide whether the reported %Inh for OCCCNc1nccc(-c2c(-c3cccc(C(F)(F)F)c3)nn3cc(C(F)(F)F)ccc23)n1 is at least 9%.
Key: Met

Exercise: Exam item: decide whether the reported %Inh for COc1ccc(-c2cc3c(C)nc(N)nc3n([C@H]3CC[C@H](O)CC3)c2=O)cn1 is at least 9%.
Key: Not met

Exercise: Exam item: decide whether the reported %Inh for CCc1nc(-c2cccc(C)c2)c(-c2ccncc2)s1 is at least 9%.
Key: Not met

Exercise: Exam item: decide whether the reported %Inh for CCC(=O)c1c(-c2ccccc2)c2cc(Cl)ccc2c(=O)n1Cc1cc(S(C)(=O)=O)n(CC(F)F)n1 is at least 9%.
Key: Not met

Exercise: Exam item: decide whether the reported %Inh for Cc1cccc(-c2cc(-c3c[nH]nc3-c3ccccn3)ccn2)c1 is at least 9%.
Key: Met
